Tested Target: Fructose-bisphosphate aldolase (Mycobacterium tuberculosis (strain ATCC 25618 / H37Rv))
Protocol Text: Mtb FBA enzyme inhibitors, primary screen, biochemical, fluorescence, strain H37Rv (AID 588726);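 further: 0% = vehicle and 100% = reference inhibitor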
Test Parameters: purified M. tuberculosis FBA, fluorescence read-out, at 1 µM, active compounds read high
Screen size: about 360,000 compounds; about 8,200 (2.3%) were called active. This is one part of a sample in which actives are shown more often than they occur.
This listing pairs compounds with measured inhibition.

Guide cases for inhibition, answers given:
| Compound | Result |
| --- | --- |
| C=CCSc1nc(N)cc(=O)[nH]1 | 3.86% (inactive) |
| O=C(O)CCN1C(=O)CC2(CCCCC2)C1=O | 1.19% (inactive) |
| COc1cc(N2C(=O)CC3(CCCC3)CC2=O)cc(OC)c1OC | 0.26% (inactive) |

# compound Cc1oc(CC(C)C)c(CN2CCCC2)c1C(=O)O ; its inhibition = -9.07% (inactive)

# compound CSc1ccc(CN2CCC2(C)C(=O)NCc2ccccc2Br)cc1 (stereo unspecified) ; its inhibition = -0.17% (inactive)

# compound O=S1(=O)CC/C(=N\Nc2ccc(F)cc2)c2ccsc21 ; its inhibition = 0.47% (inactive)
